Target: recombinant human TFPI (tissue factor pathway inhibitor) (human, UniProt P10646 29-304)
Test: cell-based or functional assay
Measurement Type: A405, TF/FVIIa/FX complex assay (FX 5 nM), Ab 50 nM
Give the value as a plain number.

Any idea what its A405, TF/FVIIa/FX complex assay (FX 5 nM), Ab 50 nM is? The binder is clone 2 (antibody, V domains shown) VH: EVQLVESGGGLVKPGGSLRLSCAASGFTFSSYAMNWVRQAPGKGLEWVSTITTGGSYTYYADSVEGRFTISRDNAKNSLYLQMNSLRAEDTAVYYCARQDGNFLMDYWGQGTLVTVSS VL: DVVMTQTPLSLPVTLGQPASISCKSSPSLLDIDGKTYLNWLQQRPGQSPKRLIYLVSKLDSGVPDRFTGSGSGTDFTLKISRVEAEDVGVYYCWQGTHFPFTFGQGTKVEIKR
0.735

Values were extracted from patent US20180030151A1.
